Test system: 521955-158-R2-J5-PDC complex spheroid viability;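 also: spheroids exposed to agents for one week before reading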
Assay: Anticancer human tumor 521955-158-R2-J5-PDC patient-derived pancreatic carcinoma cell line growth inhibition [GQUAD]
Conditions: second compound 1 µM; first compound 0.1 µM; active compounds read low
Friendly reminder: viability, T/C below 90% is TRUE, at or above is FALSE.

compound	discrete-label
COc1ccc([C@@H](O)c2cc(-c3ncnc4cc(N5CCOCC5)ccc34)c(F)cc2Cl)nn1 + Cc1[nH]c2ccc(F)cc2c1-c1nc2c3cccnc3c3ncccc3c2[nH]1	FALSE
C=CC(=O)N1CCN(c2nc(=O)n(-c3c(C)ccnc3C(C)C)c3nc(-c4c(O)cccc4F)c(F)cc23)C(C)C1 (stereo not given) + CN(C)c1ccc(Nc2c3ccc(NC(=O)CCN4CCCC4)cc3nc3cc(NC(=O)CCN4CCCC4)ccc23)cc1	TRUE
O=C(c1cc(Cc2n[nH]c(=O)c3ccccc23)ccc1F)N1CCN(C(=O)C2CC2)CC1 + CN(C)c1ccc(Nc2c3ccc(NC(=O)CCN4CCCC4)cc3nc3cc(NC(=O)CCN4CCCC4)ccc23)cc1	TRUE
COc1cccc2c1C(=O)c1c(O)c3c(c(O)c1C2=O)CC(O)(C(=O)CO)CC3OC1CC(N)C(O)C(C)O1 (stereo not given) + Cc1[nH]c2ccc(F)cc2c1-c1nc2c3cccnc3c3ncccc3c2[nH]1	TRUE
C#Cc1c(F)ccc2cc(O)cc(-c3ncc4c(N5CC6CCC(C5)N6)nc(OCC56CCCN5CC(F)C6)nc4c3F)c12 (stereo not given) + CN(C)c1ccc(Nc2c3ccc(NC(=O)CCN4CCCC4)cc3nc3cc(NC(=O)CCN4CCCC4)ccc23)cc1	TRUE
O=C(NO)c1cnc(N2CCN(S(=O)(=O)c3ccc4ccccc4c3)CC2)nc1 + Cc1[nH]c2ccc(F)cc2c1-c1nc2c3cccnc3c3ncccc3c2[nH]1	FALSE
COc1cc(C2c3cc4c(cc3C(OC3OC5COC(C)OC5C(O)C3O)C3COC(=O)C23)OCO4)cc(OC)c1O (stereo not given) + CN(C)c1ccc(Nc2c3ccc(NC(=O)CCN4CCCC4)cc3nc3cc(NC(=O)CCN4CCCC4)ccc23)cc1	FALSE
COc1cc(C2c3cc4c(cc3C(OC3OC5COC(C)OC5C(O)C3O)C3COC(=O)C23)OCO4)cc(OC)c1O (stereo not given) + Cc1cnc(CNC(=O)c2c(=O)c3ccc(N4CCCN(C)CC4)nc3n3c2sc2ccccc23)cn1	TRUE
COc1ccc([C@@H](O)c2cc(-c3ncnc4cc(N5CCOCC5)ccc34)c(F)cc2Cl)nn1 + Cc1cnc(CNC(=O)c2c(=O)c3ccc(N4CCCN(C)CC4)nc3n3c2sc2ccccc23)cn1	TRUE
